TESTED SYSTEM: E81A BfrB (Pseudomonas aeruginosa, UniProt Q9HY79 1-158, E81A)
ASSAY NAME: SPR
ATTRIBUTE MEASURED: pKd
In textbook form, pKd equals minus log to base ten of the concentration in mol/L.

In: Report measured pKd; entry is wt Bfd (C43S mutant of P. aeruginosa bacterioferritin-associated ferredoxin) (natural protein, Pseudomonas aeruginosa) MYVCLCQGVTDNQIRDAIYEGCCSYREVREATGVGTQCGKCASLAKQVVRETLNDLQSAQPVPAFGTTAFVAA
Out: 3.59
